- System: HepG2
- ASSAY_EXPLANATION: Anticancer activity against human HepG2 cells after 48 hrs by MTT assay
- Type: functional, cell-based
- SETTINGS: HepG2, 48 h
MEASURED_QUANTITY: IC50 (µM)

MOLECULAR_STRING	MEASURED_QUANTITY	LT_GT_EQ	MEASUREMENT
CC(=O)O[C@H]1[C@@H](n2ccnn2)C[C@H]2[C@@H]3CC[C@H]4C[C@@H](N(C)Cc5ccccc5)CC[C@]4(C)[C@H]3CC[C@@]21C	IC50	=	8.43
CC(=O)O[C@H]1[C@@H](n2nnc3ccccc32)C[C@H]2[C@@H]3CC[C@H]4C[C@@H](N(C)c5ccccc5)CC[C@]4(C)[C@H]3CC[C@@]21C	IC50	=	6.36
CC(=O)O[C@H]1[C@@H](n2ccnn2)C[C@H]2[C@@H]3CC[C@H]4C[C@@H](N5CCOCC5)CC[C@]4(C)[C@H]3CC[C@@]21C	IC50	>	50
